Target: 1,3-dicarbonyl-dioxygenase (Acinetobacter johnsonii)
Assay: Products of various substrates determined by HPLC (cleavage stoichiometry, partially purified enzyme)
Format: biochemical
Conditions: substrate 4 mM, 25° C., oxygen saturated buffer, one hour

| compound | measure unit | Acetate % |
| --- | --- | --- |
| CC(=O)C(C)C(C)=O [3-Methylpentandion, 3-Methylpentanedione] | % | 82 |
| CC(=O)CC(=O)C(C)(C)C [5,5-Dimethylhexan-2,4-dion, 5,5-Dimethylhexane-2,4-dione] | % | 21 |
| CCCCC(=O)CC(C)=O [2,4-Octandion, 2,4-Octanedione] | % | 55 |
| CC(=O)CC(C)=O [Acetylacetone, pentane-2,4-dione] | % | 50 |
| CCCCCC(=O)CC(C)=O [2,4-Nonanedione] | % | 35 |
| CC(=O)C1CCCC1=O (stereo not drawn) [2-Acetocyclopentanone] | % | 90 |

====

Target: 1,3-dicarbonyl-dioxygenase (Acinetobacter johnsonii)
Experiment: Products of various substrates determined by HPLC (cleavage stoichiometry, partially purified enzyme)
Format: biochemical
Conditions: substrate 4 mM, 25° C., one hour; remaining substrate calculated
Examples of compounds with documented Substrate % (remaining) follow.
parameter measured: Substrate % (remaining) (%)

| chemical string | parameter measured | measure unit | value |
| --- | --- | --- | --- |
| CCCCC(=O)CC(C)=O | Substrate % (remaining) | % | 18 |
| CC(=O)CC(=O)C(C)(C)C | Substrate % (remaining) | % | 9 |
| CC(=O)CC(C)=O | Substrate % (remaining) | % | 0 |
| CC(=O)C(C)C(C)=O | Substrate % (remaining) | % | 18 |
| CCCCCC(=O)CC(C)=O | Substrate % (remaining) | % | 17 |

====

Target: recombinant 1,3-dicarbonyl-dioxygenase (expressed in E.coli) (Acinetobacter johnsonii, UniProt Q8GNT2)
Construct: made in house; host or cells: E. coli XL1 Blue, plasmid pMS470 (tac promoter, NdeI/HindIII)
Experiment: Relative activity of recombinant protein at non-limiting substrate concentrations
Assay type: biochemical
Below: a set of entries, each annotated with reported Vmax clone.
parameter measured: Vmax clone

| compound | value |
| --- | --- |
| CC(=O)C1CCCCC1=O (stereo not drawn) | 0.48 |
| CC(=O)CC(=O)c1ccccc1 | 0.08 |
| CC(=O)CC(=O)C(C)(C)C | 0.08 |

====

In this section, each of the molecules is paired with its reported Vmax clone.
Molecular target: recombinant 1,3-dicarbonyl-dioxygenase (expressed in E.coli) (Acinetobacter johnsonii)
Construct: made in house; host or cells: E. coli XL1 Blue, plasmid pMS470 (tac promoter, NdeI/HindIII)
Assay: Relative activity of recombinant protein at non-limiting substrate concentrations
Assay type: biochemical

| molecule | Vmax clone |
| --- | --- |
| CCCCC(=O)CC(C)=O [2,4-Octandion, 2,4-Octanedione] | 0.60 |
| CC(=O)C(C)C(C)=O [3-Methylpentandion, 3-Methylpentanedione] | 0.85 |
| CC(=O)C1CCCC1=O (centres unmarked) [2-Acetocyclopentanone] | 0.43 |
| CCOC(=O)C(=O)CC(C)=O [2,4-Dioxo-pentanoic-acid-ethyl-ester] | 0.08 |
| CCCCCC(=O)CC(C)=O [2,4-Nonanedione] | 0.25 |

====

Target: 1,3-dicarbonyl-dioxygenase (Acinetobacter johnsonii, UniProt Q8GNT2)
Sequence (Q8GNT2 whole entry): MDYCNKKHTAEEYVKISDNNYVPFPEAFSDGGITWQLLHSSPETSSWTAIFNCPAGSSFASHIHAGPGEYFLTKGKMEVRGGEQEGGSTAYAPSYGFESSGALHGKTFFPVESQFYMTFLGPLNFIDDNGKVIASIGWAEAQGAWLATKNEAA
Assay type: biochemical
Conditions: inhibitor 2.5 mM, 10 min incubation, 0.5 mM acetylacetone, pH 7.5
parameter measured: Relative activity [%] 10 min (%)

| compound | parameter measured | value |
| --- | --- | --- |
| O=C1CCC(=O)O1 [Succinic anhydride] | Relative activity [%] 10 min | 23 |
| CCOC(=O)OC(=O)OCC [Diethyl-pyrocarbonate] | Relative activity [%] 10 min | 12 |
| CCN=C=NCCCN(C)C | Relative activity [%] 10 min | 95 |
| O=C(O)c1cc(SSc2ccc([N+](=O)[O-])c(C(=O)O)c2)ccc1[N+](=O)[O-] | Relative activity [%] 10 min | 85 |

====

Molecular target: UniProt Q8GNT2
Assay: Substrate spectrum / apparent kinetic constants of purified 1,3-dicarbonyl-dioxygenase (UV assay and oxygen electrode)

| chemical string | acceptance as substrate (in words) |
| --- | --- |
| Cc1cccc(O)c1O | does not accept |
| Oc1ccccc1O | does not accept |

====

Target: 1,3-dicarbonyl-dioxygenase (Acinetobacter johnsonii)
Assay: Substrate spectrum / apparent kinetic constants of purified 1,3-dicarbonyl-dioxygenase (UV assay and oxygen electrode)
Conditions: apparent, relative to acetylacetone = 1.00; purified wild-type enzyme
Procedure: The reaction rates were determined by using the microcomputer regression program provided with the spectrophotometer (Winspec) based on the first ten absorbance measurements made at 5-s intervals. Substrates were dissolved at a concentration of 0.001-1 mM in KH2PO4-buffer, 50 mM, pH 7.5 using a 10 mM stock solution. Duplicate absorption-measurements of 20 different dilutions were performed at 25° C. The molar absorption coefficients were calculated by linear regression. […]

| compound | Vmaxrel. |
| --- | --- |
| CCCCCC(=O)CC(C)=O | 0.56 |
| CC(=O)C(C)C(C)=O | 0.25 |
| CC(=O)CC(=O)c1ccccc1 | 0.15 |
| CC(=O)C1CCCCC1=O (stereo not drawn) | 0.58 |
| CC(=O)C1CCCC1=O (stereo not drawn) | 0.52 |
| CC(=O)CC(=O)C(C)(C)C | 0.25 |
| CCCCC(=O)CC(C)=O | 0.58 |
| CCOC(=O)C(=O)CC(C)=O | 0.09 |
| CC(=O)CC(C)=O | 1.00 |

====

Target: 1,3-dicarbonyl-dioxygenase (Acinetobacter johnsonii, UniProt Q8GNT2)
Test: Products of various substrates determined by HPLC (cleavage stoichiometry, partially purified enzyme)
Assay type: biochemical
Details: substrate 4 mM, 25° C., oxygen saturated buffer, one hour
Source text: The products of the enzyme reaction were identified directly from the reaction mixture by in situ ^1H-NMR-spectroscopy (Pokorny, D., L. Brecker, M. Pogorevc, H. Griengl, W. Steiner, T. Kappe, and D. W. Ribbons. 1999. Proton-Nuclear Magnetic Resonance Analyses of the Substrate Specificity of a β-Ketolase from Pseudomonas putida, Acetopyruvate Hydrolase. J. Bacteriol. 181: 5051-5059.). […]
# Methylglyoxal % per record follows
parameter measured: Methylglyoxal % (%)

| compound | value |
| --- | --- |
| CCCCCC(=O)CC(C)=O [2,4-Nonanedione] | 48 |
| CC(=O)CC(C)=O [Acetylacetone, pentane-2,4-dione] | 50 |
| CC(=O)CC(=O)C(C)(C)C [5,5-Dimethylhexan-2,4-dion, 5,5-Dimethylhexane-2,4-dione] | 70 |
| CCCCC(=O)CC(C)=O [2,4-Octandion, 2,4-Octanedione] | 27 |

====

Biological target: wild-type 1,3-dicarbonyl-dioxygenase (Acinetobacter johnsonii, UniProt Q8GNT2)
Assay: Relative activity of wild-type enzyme at non-limiting substrate concentrations
Assay type: biochemical
The label is Y for Vmax wild-type below 0.3 and N for Vmax wild-type equal to or exceeding 0.3.

| molecule | class name |
| --- | --- |
| CC(=O)CC(=O)C(C)(C)C | Y |
| CCOC(=O)C(=O)CC(C)=O | Y |
| CC(=O)C(C)C(C)=O | N |
| CC(=O)CC(=O)c1ccccc1 | Y |
| CC(=O)C1CCCC1=O (centres unmarked) | N |
| CC(=O)C1CCCCC1=O (centres unmarked) | N |
| CCCCC(=O)CC(C)=O | N |

====

Molecular target: 1,3-dicarbonyl-dioxygenase (Acinetobacter johnsonii, UniProt Q8GNT2)
Assay type: biochemical
Recorded Relative activity [%] 2 min (reactivation), one value per entry.
parameter measured: Relative activity [%] 2 min (reactivation)

| chemical string | value |
| --- | --- |
| O=S(=O)([O-])[O-].[Zn+2] | 0% |
| [Cl][Ni][Cl] | 0% |
| O=S(=O)([O-])[O-].[Fe+2] | 14% |
| O=S(=O)([O-])[O-].[Mn+2] | 0% |
| [Cl][Fe]([Cl])[Cl] | 0% |
| [Cl][Cu][Cl] | 0% |

====

Molecular target: 1,3-dicarbonyl-dioxygenase (Acinetobacter johnsonii)
Assay: Substrate spectrum / apparent kinetic constants of purified 1,3-dicarbonyl-dioxygenase (UV assay and oxygen electrode)
Settings: oxygen consumed per substrate, oxygen electrode
parameter measured: O2/Substrate

| compound | parameter measured | value |
| --- | --- | --- |
| CC(=O)CC(=O)c1ccccc1 [1-Phenyl-1,3-butandion, 1-Phenyl-1,3-butanedione] | O2/Substrate | 1.0 |
| CC(=O)CC(=O)C(C)(C)C [5,5-Dimethylhexan-2,4-dion, 5,5-Dimethylhexane-2,4-dione] | O2/Substrate | 0.9 |
| CC(=O)C1CCCCC1=O (stereo not drawn) [2-Acetocyclohexanone] | O2/Substrate | 0.9 |

====

Molecular target: UniProt:Q8GNT2
Test: Substrate spectrum / apparent kinetic constants of purified 1,3-dicarbonyl-dioxygenase (UV assay and oxygen electrode)
Details: apparent; polarographic, estimated from rate of oxygen depletion, substrate 0.5-1 mM
KO2 strictly less than 80 µM = 1. Otherwise -1.

| compound | class name |
| --- | --- |
| CC(=O)C(C)C(C)=O | 1 |
| CCOC(=O)C(=O)CC(C)=O | -1 |
| CC(=O)C1CCCCC1=O (stereo not drawn) | 1 |
| CCCCCC(=O)CC(C)=O | -1 |
| CC(=O)CC(=O)c1ccccc1 | -1 |
| CC(=O)C1CCCC1=O (stereo not drawn) | 1 |
| CC(=O)CC(C)=O | 1 |
| CCCCC(=O)CC(C)=O | -1 |
| CC(=O)CC(=O)C(C)(C)C | 1 |
